pIC50 values, listed per item
tested on: NaV1.7 (Homo sapiens)
Construct: expressed in transfected cells; host or cells: HEK293, tetracycline-inducible
measurement description: Automated patch clamp (Qube 384), internal block of NaV1.7 in HEK293 cells
Type: cell-based
experimental conditions: compound in internal solution, read-out: NaV1.7 Intracellular Inhibition
pIC50: −log10 of the molar value.

These solved cases illustrate the format of a correct answer.
{"molecule": "CCNC(=O)C1CCC[N+](CC(=O)Nc2c(C)cccc2C(=O)OC)(Cc2ccccc2)C1.O=C([O-])C(F)(F)F (stereo not drawn)", "measured result": "> 6.00"}
{"molecule": "COC(=O)c1cccc(C)c1NC(=O)C[N+]1(Cc2ccccc2)CCCCCC1", "measured result": "> 6.00"}
{"molecule": "CC[N+]1(CC(=O)Nc2c(C)cccc2C(=O)OC)CCCC(C(N)=O)C1.[I-] (stereo not drawn)", "measured result": "5.00 to 5.52"}
{"molecule": "CC[N+]1(CC(=O)Nc2c(C)cccc2C(=O)OC)CCCC(C(=O)NC(C)C)C1.[I-] (stereo not drawn)", "measured result": "5.52 to 6.00"}
{"molecule": "CCCOC(=O)C1CCC[N+](CC(=O)Nc2c(C)cccc2C(=O)OC)(Cc2ccccc2)C1 (mixture of isomers)", "measured result": "5.52 to 6.00"}
{"molecule": "CCCOC(=O)c1cccc(C)c1NC(=O)C[N+]1(Cc2ccccc2)CCCCCC1.[Br-]", "measured result": "5.52 to 6.00"}
{"molecule": "Cc1cccc(C(=O)OC(C)(C)C)c1NC(=O)C[n+]1cccn1C1CCCCC1.[Br-]", "measured result": "5.52 to 6.00"}
{"molecule": "COC(=O)C[N+]1(CC(=O)Nc2c(C)cccc2C(=O)OC)CCCC(c2ccccc2)C1 (mixture of isomers)", "measured result": "> 6.00"}
{"molecule": "CCN(CC)C(=O)C1CCC[N+](CC)(CC(=O)Nc2c(C)cccc2C(=O)OC)C1.[I-] (stereo not drawn)", "measured result": "5.52 to 6.00"}
{"molecule": "CNC(=O)C1CCC[N+](CC(=O)Nc2c(C)cccc2C(=O)OC)(Cc2ccccc2)C1 (mixture of isomers)", "measured result": "> 6.00"}

Note down pIC50 recorded for CC[N+]1(CC(=O)Nc2c(C)cccc2C(=O)OC)CCCC(C(=O)OC2CCCC2)C1.[I-] (stereo not drawn) 5.52 to 6.00

Note down pIC50 recorded for COC(=O)c1cccc(C)c1NC(=O)C[N+]1(Cc2ccccc2)CCCC(C(=O)NC2CCCC2)C1.[Br-] (stereo not drawn) 5.52 to 6.00

Note down pIC50 recorded for CNC(=O)C[N+]1(CC(=O)Nc2c(C)cccc2C(=O)OC)CCCC(c2ccccc2)C1.[Br-] (mixture of isomers) > 6.00

Note down pIC50 recorded for CCN(CC)C(=O)C[N+]1(CC(=O)Nc2c(C)cccc2C(=O)OC)CCCC(c2ccccc2)C1 (mixture of isomers) 5.52 to 6.00

Note down pIC50 recorded for COC(=O)c1cccc(C)c1NC(=O)C[N+]1(Cc2ccccc2)CCCC(C(=O)N(C)C)C1 (mixture of isomers) > 6.00

====

tested on: NaV1.7 (Homo sapiens)
Construct: expressed in transfected cells; host or cells: HEK293, tetracycline-inducible
measurement description: Whole cell patch clamp, internal block of NaV1.7 current
Type: cell-based
experimental conditions: % inhibition at 1 μM test concentration, compound in internal solution, manual whole cell patch clamp
Method: NaV1.7 was expressed upon induction with tetracycline. […] Once the recording was started, the voltage protocol was run at 30 second intervals for 5 minutes to get a stable baseline. […] Currents were recorded using PatchMaster software with Heka EPC10 (HEKA Electronics, Lambrecht, Germany). […] The data was plotted using the Patchmaster software (HEKA Electronics, Lambrecht, Germany) and analyzed by plotting the minimum current during the voltage step to −20 mV (peak inward current) as a function of time. […]
test readout: NaV1.7 Intracellular Inhibition

{"compound": "CCOC(=O)C1CCC[N+](CC)(CC(=O)Nc2c(C)cccc2C(=O)OC)C1.[I-] (stereo not shown)", "NaV1.7 Intracellular Inhibition": "++ (70-30%)"}
{"compound": "COC(=O)c1cccc(C)c1NC(=O)C[n+]1cccc(-c2ccccc2)c1.[Br-]", "NaV1.7 Intracellular Inhibition": "+++ (90-70%)"}
{"compound": "CNC(=O)C[N+]1(CC(=O)Nc2c(C)cccc2C(=O)OC)CCCC(c2ccccc2)C1.[Br-] (mixture of isomers)", "NaV1.7 Intracellular Inhibition": "+++ (90-70%)"}
{"compound": "COC(=O)c1cccc(C)c1NC(=O)C[N+]1(Cc2ccccc2)CCCC1", "NaV1.7 Intracellular Inhibition": "++ (70-30%)"}
{"compound": "CC[N+]1(CC(=O)Nc2c(C)cccc2C(=O)OC)CCCC(C(=O)OCC(C)C)C1.[I-] (stereo not shown)", "NaV1.7 Intracellular Inhibition": "+++ (90-70%)"}

Then there is this compound:
Note down NaV1.7 Intracellular Inhibition recorded for CCOC(=O)C[N+]1(CC(=O)Nc2c(C)cccc2C(=O)OC)CCCC(c2ccccc2)C1.O=C([O-])C(F)(F)F (stereo not shown) +++ (90-70%)

====

tested on: NaV1.7 (Homo sapiens, UniProt Q15858)
Construct: expressed in transfected cells; host or cells: HEK293, tetracycline-inducible
Sequence (Q15858 whole entry): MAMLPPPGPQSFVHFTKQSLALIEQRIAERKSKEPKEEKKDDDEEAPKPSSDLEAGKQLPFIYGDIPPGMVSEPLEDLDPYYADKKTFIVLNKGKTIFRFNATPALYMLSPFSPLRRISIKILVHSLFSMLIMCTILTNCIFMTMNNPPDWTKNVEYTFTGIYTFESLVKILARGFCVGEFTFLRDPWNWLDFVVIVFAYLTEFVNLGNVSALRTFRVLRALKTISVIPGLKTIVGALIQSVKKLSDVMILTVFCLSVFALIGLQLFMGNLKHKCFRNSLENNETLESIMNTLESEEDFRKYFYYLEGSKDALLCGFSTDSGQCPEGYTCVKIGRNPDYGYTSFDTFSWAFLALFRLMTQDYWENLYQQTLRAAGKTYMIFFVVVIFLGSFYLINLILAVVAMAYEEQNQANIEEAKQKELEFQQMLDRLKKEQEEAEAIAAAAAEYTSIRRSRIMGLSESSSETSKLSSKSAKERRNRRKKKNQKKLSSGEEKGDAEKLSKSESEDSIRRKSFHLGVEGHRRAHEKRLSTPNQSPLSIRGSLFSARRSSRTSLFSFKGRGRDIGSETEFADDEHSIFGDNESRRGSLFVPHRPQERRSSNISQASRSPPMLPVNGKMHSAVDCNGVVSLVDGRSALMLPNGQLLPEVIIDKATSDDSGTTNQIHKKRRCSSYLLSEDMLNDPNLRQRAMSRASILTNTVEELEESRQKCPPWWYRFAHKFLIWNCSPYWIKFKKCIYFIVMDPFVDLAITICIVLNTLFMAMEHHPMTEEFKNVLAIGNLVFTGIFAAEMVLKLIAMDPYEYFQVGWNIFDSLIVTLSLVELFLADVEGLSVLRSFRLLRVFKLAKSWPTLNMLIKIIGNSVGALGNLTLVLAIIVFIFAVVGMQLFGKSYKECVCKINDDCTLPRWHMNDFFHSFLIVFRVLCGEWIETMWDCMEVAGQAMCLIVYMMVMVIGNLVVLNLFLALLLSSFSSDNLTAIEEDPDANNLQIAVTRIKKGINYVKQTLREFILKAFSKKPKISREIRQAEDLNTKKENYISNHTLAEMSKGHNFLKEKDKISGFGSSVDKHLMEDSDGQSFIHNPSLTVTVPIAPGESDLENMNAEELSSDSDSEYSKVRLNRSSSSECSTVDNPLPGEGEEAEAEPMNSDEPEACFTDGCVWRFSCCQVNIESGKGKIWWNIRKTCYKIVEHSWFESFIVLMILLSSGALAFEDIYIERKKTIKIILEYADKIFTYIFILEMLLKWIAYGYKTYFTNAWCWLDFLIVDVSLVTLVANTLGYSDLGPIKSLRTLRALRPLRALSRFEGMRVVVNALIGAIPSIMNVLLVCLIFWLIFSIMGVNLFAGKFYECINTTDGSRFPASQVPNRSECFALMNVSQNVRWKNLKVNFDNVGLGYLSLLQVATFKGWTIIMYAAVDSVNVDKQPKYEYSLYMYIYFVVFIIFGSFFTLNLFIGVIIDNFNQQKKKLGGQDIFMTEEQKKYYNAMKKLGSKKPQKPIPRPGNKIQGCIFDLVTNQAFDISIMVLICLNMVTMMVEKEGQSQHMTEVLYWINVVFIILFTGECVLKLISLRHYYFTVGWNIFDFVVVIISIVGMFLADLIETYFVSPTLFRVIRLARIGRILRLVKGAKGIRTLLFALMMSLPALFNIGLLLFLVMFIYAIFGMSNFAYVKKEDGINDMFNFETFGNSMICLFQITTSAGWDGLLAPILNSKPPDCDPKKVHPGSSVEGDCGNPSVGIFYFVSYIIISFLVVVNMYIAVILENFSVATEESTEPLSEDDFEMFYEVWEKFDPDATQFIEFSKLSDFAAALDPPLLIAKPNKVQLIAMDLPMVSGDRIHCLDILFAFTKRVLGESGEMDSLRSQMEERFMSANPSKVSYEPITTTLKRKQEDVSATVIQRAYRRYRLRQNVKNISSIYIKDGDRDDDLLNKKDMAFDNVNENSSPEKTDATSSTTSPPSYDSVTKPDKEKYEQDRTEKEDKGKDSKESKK
measurement description: Whole cell patch clamp, internal block of NaV1.7 current
Format: cell-based
experimental conditions: % inhibition at 1 μM test concentration, compound in internal solution, manual whole cell patch clamp
test readout: NaV1.7 Intracellular Inhibition

{"compound": "CCCOC(=O)C1CCC[N+](CC)(CC(=O)Nc2c(C)cccc2C(=O)OC)C1.[I-] (stereo not drawn)", "tested on": "NaV1.7 (Homo sapiens, UniProt Q15858)", "measured result": "++ (70-30%)"}
{"compound": "COC(=O)c1cccc(C)c1NC(=O)C[n+]1cccn1C1CCCCC1.[Br-]", "tested on": "NaV1.7 (Homo sapiens, UniProt Q15858)", "measured result": "++ (70-30%)"}

====

measurement description: PAMPA membrane permeability assay
Type: physicochemical
experimental conditions: pH 7.4 buffer, GIT lipid, 4 hours incubation
test readout: PAMPA (10^−6 cm/s)

These solved cases illustrate the format of a correct answer.
{"molecule": "CCOC(=O)c1cccc(C)c1NC(=O)C[N+]1(Cc2ccccc2)CCCCCCC1.[Br-] [Compound 10]", "measured result": "+ (<0.1 10^−6 cm/s)"}
{"molecule": "COC(=O)c1cccc(C)c1NC(=O)C[N+]1(CC(=O)N(C)C)CCCC(c2ccccc2)C1.O=C([O-])C(F)(F)F (stereo not drawn) [Compound 60]", "measured result": "+ (<0.1 10^−6 cm/s)"}
{"molecule": "CCOC(=O)c1cccc(C)c1NC(=O)C[n+]1cccn1C1CCCCC1.[Br-] [Compound 70]", "measured result": "+ (<0.1 10^−6 cm/s)"}
{"molecule": "CCCCOC(=O)C1CCC[N+](CC)(CC(=O)Nc2c(C)cccc2C(=O)OC)C1.[I-] (mixture of isomers) [Compound 15]", "measured result": "+ (<0.1 10^−6 cm/s)"}
{"molecule": "CCOC(=O)c1cccc(C)c1NC(=O)C[n+]1cccc(C(=O)OC2CCCC2)c1.[Br-] [Compound 68]", "measured result": "+++ (2.0-10.010^−6 cm/s)"}
{"molecule": "CCOC(=O)C1CCC[N+](CC)(CC(=O)Nc2c(C)cccc2C(=O)OC)C1.[I-] (stereo not drawn) [Compound 24]", "measured result": "+ (<0.1 10^−6 cm/s)"}
{"molecule": "COC(=O)c1cccc(C)c1NC(=O)C[N+]1(Cc2ccccc2)CCCC(C(=O)NCC(C)C)C1.[Br-] (stereo not drawn) [Compound 36]", "measured result": "+++ (2.0-10.010^−6 cm/s)"}
{"molecule": "CCOC(=O)C[N+]1(CC(=O)Nc2c(C)cccc2C(=O)OC)CCCC(c2ccccc2)C1.O=C([O-])C(F)(F)F (stereo not drawn) [Compound 63]", "measured result": "+++ (2.0-10.010^−6 cm/s)"}

Note down PAMPA (10^−6 cm/s) recorded for CCCOC(=O)c1cccc(C)c1NC(=O)C[N+]1(Cc2ccccc2)CCCCCC1.[Br-] [Compound 6] + (<0.1 10^−6 cm/s)

Note down PAMPA (10^−6 cm/s) recorded for CC[N+]1(CC(=O)Nc2c(C)cccc2C(=O)OC)CCCC(C(=O)NC2CCCC2)C1 (mixture of isomers) [Compound 52] + (<0.1 10^−6 cm/s)

Note down PAMPA (10^−6 cm/s) recorded for COC(=O)c1cccc(C)c1NC(=O)C[n+]1cccc(-c2ccccc2)c1.[Br-] [Compound 66] + (<0.1 10^−6 cm/s)

Note down PAMPA (10^−6 cm/s) recorded for COC(=O)C[N+]1(CC(=O)Nc2c(C)cccc2C(=O)OC)CCCC(c2ccccc2)C1 (mixture of isomers) [Compound 64] + (<0.1 10^−6 cm/s)

Note down PAMPA (10^−6 cm/s) recorded for CC[N+]1(CC(=O)Nc2c(C)cccc2C(=O)OC)CCCC(C(=O)NC)C1.[I-] (stereo not drawn) [Compound 46] + (<0.1 10^−6 cm/s)
